Record form. Attribute: Kcat. Fill in for each entry.
Test: Standard protocol for determination of kcat and KM (continuous spectrophotometric assay, Acetyl CoA hydrolysis at 235 nm)
Format: biochemical
Conditions: purified protein; about 23° C.; 20 mM HEPES pH 6.8, 10% ethylene glycol, 0.2 mM acetyl CoA
Please report the result as a number followed by the unit.

Exercise: Identify measured Kcat associated with SEQ ID NO: 437: GAT polypeptide (protein, 9H11, GAT polypeptide) MIEVKPINAEDTYEIRHRILRPNQPLEACKYETDLLGGTFHLGGYYRGKLISIASFHKAEHSELEGEEQYQLRGMATLEGYREQKAGSTLIRHAEELLRKKGADLLWCNARTSVSGYYKKLGFSEQGEVYDIPPIGPHILMYKKLT
Solution: 0.067 s⁻¹

Exercise: Input SEQ ID NO: 355: GAT polypeptide (protein, 2H3, GAT polypeptide) MIEVKPINAEDTYEIRHRILRPNQPLEACKYETDLLGGTFHLGGYYQGKLISTASFHQAGHSELEGQKQYQLRGMATLEGYRERKAGSTLIRHAEELLRKKGADLLWCNARISASGYYKKLGFSEQGGVYDIPPIGPHILMYKKLT , output reported Kcat.
Solution: 0.268 s⁻¹
